- Assay System: Penicillin-binding protein 2B (Streptococcus pneumoniae (strain ATCC BAA-255 / R6), UniProt P0A3M6, A619G/T446A)
- Measurement Protocol: Inhibition of Bocillin FL binding to PBP2b Thr446Ala/Ala-619-Gly mutant in laboratory-derived Streptococcus pneumoniae isolate R6
Assay Readout: pIC50
Units for pIC50: none; it is -log10 of a concentration expressed in mol/L.

Nc1nc(/C(=N/O)C(=O)N[C@@H]2C(=O)N3C(C(=O)O)=C(/C=C4\CCN([C@@H]5CCNC5)C4=O)CS[C@H]23)ns1; 5.50

Now turn to the next compound.
Request: Would you mind telling me what pIC50 value was observed for CC1(C)S[C@@H]2[C@H](NC(=O)Cc3ccccc3)C(=O)N2[C@H]1C(=O)O ?
Response: 5.27

---

- Assay System: Penicillin-binding protein 2B (Streptococcus pneumoniae serotype 4 (strain ATCC BAA-334 / TIGR4), UniProt P0A3M5)
- Measurement Protocol: Inhibition of Bocillin FL binding to PBP2b in laboratory-derived Streptococcus pneumoniae isolate R6
Assay Readout: IC50 (nM)
Express the result in nM but write the number alone.

CC1(C)S[C@@H]2[C@H](NC(=O)Cc3ccccc3)C(=O)N2[C@H]1C(=O)O; 449

Request: Would you mind telling me what IC50 value was observed for Nc1nc(/C(=N/O)C(=O)N[C@@H]2C(=O)N3C(C(=O)O)=C(/C=C4\CCN([C@@H]5CCNC5)C4=O)CS[C@H]23)ns1 ?
Response: 112

---

This section presents compounds with their documented pIC50 values.
- Assay System: Penicillin-binding protein 2B (Streptococcus pneumoniae (strain ATCC BAA-255 / R6), UniProt P0A3M6, T446A)
- Measurement Protocol: Inhibition of Streptococcus pneumoniae isolate 8882 Bocillin FL binding to PBP2b 443SSNA mutant
Units for pIC50: none; it is -log10 of a concentration expressed in mol/L.

CC1(C)S[C@@H]2[C@H](NC(=O)Cc3ccccc3)C(=O)N2[C@H]1C(=O)O; 5.13

Request: Would you mind telling me what pIC50 value was observed for Nc1nc(/C(=N/O)C(=O)N[C@@H]2C(=O)N3C(C(=O)O)=C(/C=C4\CCN([C@@H]5CCNC5)C4=O)CS[C@H]23)ns1 ?
Response: 5.65

---

This section presents molecules with their documented pIC50 values.
- Assay System: Penicillin-binding protein 2B (Streptococcus pneumoniae (strain ATCC BAA-255 / R6), UniProt P0A3M6, A619G)
- Sequence (P0A3M6 whole entry A619G): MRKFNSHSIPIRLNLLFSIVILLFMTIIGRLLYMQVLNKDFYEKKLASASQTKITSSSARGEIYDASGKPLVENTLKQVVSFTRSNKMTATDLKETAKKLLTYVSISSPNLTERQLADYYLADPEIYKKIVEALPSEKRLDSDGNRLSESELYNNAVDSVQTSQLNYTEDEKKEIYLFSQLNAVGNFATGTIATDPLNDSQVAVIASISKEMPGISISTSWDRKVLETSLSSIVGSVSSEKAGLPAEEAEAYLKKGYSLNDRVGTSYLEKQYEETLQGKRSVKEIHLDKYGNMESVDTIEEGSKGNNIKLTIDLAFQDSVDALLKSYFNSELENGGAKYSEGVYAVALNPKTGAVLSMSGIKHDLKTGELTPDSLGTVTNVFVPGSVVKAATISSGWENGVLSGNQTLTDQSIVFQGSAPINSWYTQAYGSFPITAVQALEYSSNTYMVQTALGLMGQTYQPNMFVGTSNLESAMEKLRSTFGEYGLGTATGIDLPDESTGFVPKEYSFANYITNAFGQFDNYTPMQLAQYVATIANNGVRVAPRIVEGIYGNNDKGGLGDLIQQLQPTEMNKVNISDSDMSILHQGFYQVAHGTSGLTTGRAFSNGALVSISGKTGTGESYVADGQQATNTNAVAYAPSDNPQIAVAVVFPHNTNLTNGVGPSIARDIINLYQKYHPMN
- Measurement Protocol: Inhibition of Bocillin FL binding to PBP2b in Streptococcus pneumoniae isolate 8819 harboring E333G, I361L, E369D, S412P, N422Y, T426K, Q427L, Q438E, L455I, S473T, E476G, S480A, T489A, N538D, D561E, Q564K, and D625G mutant genes
pIC50: −log10 of the molar value.

Observe how each entry below is paired with its result.
Nc1nc(/C(=N/O)C(=O)N[C@@H]2C(=O)N3C(C(=O)O)=C(/C=C4\CCN([C@@H]5CCNC5)C4=O)CS[C@H]23)ns1 [CEFTOBIPROLE]; < 4.82
CO/N=C(\C(=O)N[C@@H]1C(=O)N2C(C(=O)O)=C(CSc3nc(=O)c(O)nn3C)CS[C@H]12)c1csc(N)n1 [CEFTRIAXONE]; < 4.84

Now turn to the next molecule.
Request: Would you mind telling me what pIC50 value was observed for CC1(C)S[C@@H]2[C@H](NC(=O)Cc3ccccc3)C(=O)N2[C@H]1C(=O)O [PENICILLIN G] ?
Response: < 4.62
